Target: Gal(b1-3)GlcNAc(a1-3)Gal(b1-4)GlcNAc
Experiment: glycan array binding signal (z-score within array); higher = stronger binding
Details: glycan notation: IUPAC condensed, linker removed
The entries come from a sample that favours the strongest signals as a whole.
glycan array binding signal (z-score): recorded values

binder	glycan array binding signal (z-score)
Gal-9-hFc (Mus musculus), O08573-2 (protein) MALFSAQSPYINPIIPFTGPIQGGLQEGLQVTLQGTTKSFAQRFVVNFQNSFNGNDIAFHFNPRFEEGGYVVCNTKQNGQWGPEERKMQMPFQKGMPFELCFLVQRSEFKVMVNKKFFVQYQHRVPYHLVDTIAVSGCLKLSFITFQTQNFRPAHQAPMAQTTIHMVHSTPGQMFSTPGIPPVVYPTPAYTIPFYTPIPNGLYPSKSIMISGNVLPDATRFHINLRCGGDIAFHLNPRFNENAVVRNTQINNSWGQEERSLLGRMPFSRGQSFSVWIICEGHCFKVAVNGQHMCEYYHRLKNLQDINTLEVAGDIQLTHVQT	-0.259
PpFlo1 (Pichia pastoris) (protein) MGSSHHHHHHSSGLVPRGSHMQESGDGDISDSAYACDIDATRYDGFNATIYEFQPGDGRLTRDPVFMSTGYLNRTQLHSITGVTDPGFSIYTPGVPTTTLYGIPNVNWENLLLELKGYFRAEVSGDYGLSLRNIDDSAILFFGKETAFQCCNENSISNEASTDYSLFTIFRQEGDETTNLDSFTYTQYLEAGKYYPVRTFFVNIERHAVFNFTMTLPDGTELTDFHNYIYQFGALDEEQCQA	-0.388
Gal 2 (Homo sapiens), P05162 (protein) MTGELEVKNMDMKPGSTLKITGSIADGTDGFVINLGQGTDKLNLHFNPRFSESTIVCNSLDGSNWGQEQREDHLCFSPGSEVKFTVTFESDKFKVKLPDGHELTFPNRLGHSHLSYLSVRGGFNMSSFKLKE	-0.111
Sebin1 (Coprinopsis cinerea), A8PEE3 (protein) MTSPFYAHIHNVQDDNTWRFTLIFANRATADEWWRAISEAPANTSIAKSITRVTPQYYTHDVNIWNIWNFFADGNIKSISERFRGRLFIVLENDRGGRGITVIPPVPIVDHVSGNWFYIRSKTAPHLFWYYDERRSSIYASKEKRTRFKISIRNPSSQTPKNAIMINTDDVTIHIKENLYVGVDNNLGHIIPTRAYRTFKFGELESGAIAGFDVVENIEERCSSTFDGASLSISGPDSSSPGEPWELV	-0.485
EULS2 M4 (Oryza sativa) (protein) MVYCRANPNYAMTARNGAVVLAPANPKDEYQHWIKDMRWSTSIKDEEGYPAFALVNKATGQAIKHSLGQSHPVRLVPYNPEVMDESVLWTESRDVGNGFRCIRMVNNIYLNFDAFHGDKYHGGVRDGTDIVLWKWCEGDSLRWKIQPYYILEQKLISEEDLNSAVDHHHHHH	-0.21
LFA (Limax flavus) (protein) MSVLFLAASFLLLASFELVAAQGCPRQDPGDWIVIQRRLNADVNFYRGWADYKHGFGDLRCNFWLGNEKIHQLTSHGRYKLRVEFTFNNKSYFAEYSTFKILGEADKYKLQVGGYSGNAGDALTFHNGMAFSTNDRDNDADSIDCAKVYHGAWWYKTCHESNLNGKWGSKKYGEGLNWKAKTTFTATATSSLLKIKALK	-0.103
